The reported numbers originate from ChEMBL document CHEMBL5230166.

# Experimental protocol: Cytotoxicity against human A549 cells assessed as inhibition of cell growth at 64 ug/ml relative to control
# Type: toxicity, cell-based
# Details: at 64 µg/mL, read-out: Activity

[
  {
    "Structure smiles": "COc1ccc2nc(CN3CCN(S(=O)(=O)c4ccccc4F)CC3)cc(OC)c2c1",
    "inhibition at 64 ug/ml": "< 12%"
  },
  {
    "Structure smiles": "COc1cc(CN2CCN(S(=O)(=O)c3ccccc3F)CC2)nc2ccc(F)cc12",
    "inhibition at 64 ug/ml": "< 12%"
  }
]

---

Each entry below carries its reported inhibition at 64 ug/ml.
# Experimental protocol: Cytotoxicity against human HepG2 cells assessed as inhibition of cell growth at 64 ug/ml relative to control
# Assay type: toxicity, cell-based
# Details: at 64 µg/mL, read-out: Activity
Readout type: inhibition at 64 ug/ml

[
  {
    "Structure smiles": "COc1cc(CN2CCN(S(=O)(=O)c3ccccc3F)CC2)nc2ccc(F)cc12",
    "Observed measurement": "< 12%"
  },
  {
    "Structure smiles": "COc1ccc2nc(CN3CCN(S(=O)(=O)c4ccccc4F)CC3)cc(OC)c2c1",
    "Observed measurement": "< 12%"
  }
]

---

# System: Escherichia coli
# Experimental protocol: Antibacterial activity against clinical isolate Escherichia coli AB 117 assessed as inhibition of bacterial growth incubated for 22 to 24 hrs
# Assay type: functional
# Details: time 22-24 hrs
Below, each of the molecules is paired with its reported MIC value.
Readout type: MIC

[
  {
    "Structure smiles": "COc1cc(CN2CCN(S(=O)(=O)c3ccc(Cl)cc3Cl)CC2)nc2ccc(F)cc12",
    "Readout type": "MIC",
    "Observed measurement": "> 64 µg/mL"
  },
  {
    "Structure smiles": "COc1cc(CN2CCN(S(=O)(=O)c3ccc(NC(C)=O)cc3)CC2)nc2ccc(F)cc12",
    "Readout type": "MIC",
    "Observed measurement": "> 64 µg/mL"
  },
  {
    "Structure smiles": "COc1ccc2nc(CN3CCN(C(=O)c4ccccc4OC)CC3)cc(OC)c2c1",
    "Readout type": "MIC",
    "Observed measurement": "> 64 µg/mL"
  },
  {
    "Structure smiles": "COc1ccc2nc(CN3CCN(S(=O)(=O)c4c(F)c(F)c(F)c(F)c4F)CC3)cc(OC)c2c1",
    "Readout type": "MIC",
    "Observed measurement": "> 64 µg/mL"
  },
  {
    "Structure smiles": "COc1ccc2nc(CN3CCN(S(=O)(=O)c4ccc(F)cc4)CC3)cc(OC)c2c1",
    "Readout type": "MIC",
    "Observed measurement": "> 64 µg/mL"
  },
  {
    "Structure smiles": "COc1cc(CN2CCN(C(=O)c3cccc(Cl)c3)CC2)nc2ccc(F)cc12",
    "Readout type": "MIC",
    "Observed measurement": "> 64 µg/mL"
  },
  {
    "Structure smiles": "COc1ccc2nc(CN3CCN(C(=O)c4c(Cl)cccc4Cl)CC3)cc(OC)c2c1",
    "Readout type": "MIC",
    "Observed measurement": "> 64 µg/mL"
  },
  {
    "Structure smiles": "COc1ccc2nc(CN3CCN(S(=O)(=O)c4ccc(NC(C)=O)cc4)CC3)cc(OC)c2c1",
    "Readout type": "MIC",
    "Observed measurement": "> 64 µg/mL"
  },
  {
    "Structure smiles": "COc1ccc2nc(CN3CCN(S(=O)(=O)c4ccccc4F)CC3)cc(OC)c2c1",
    "Readout type": "MIC",
    "Observed measurement": "8 µg/mL"
  },
  {
    "Structure smiles": "COc1ccc2nc(CN3CCN(S(=O)(=O)c4ccccc4C(F)(F)F)CC3)cc(OC)c2c1",
    "Readout type": "MIC",
    "Observed measurement": "16 µg/mL"
  },
  {
    "Structure smiles": "CC(=O)NC[C@H]1CN(c2ccc(N3CCOCC3)c(F)c2)C(=O)O1",
    "Readout type": "MIC",
    "Observed measurement": "8 µg/mL"
  },
  {
    "Structure smiles": "COc1cc(CN2CCN(C(=O)c3cccc(F)c3)CC2)nc2ccc(F)cc12",
    "Readout type": "MIC",
    "Observed measurement": "> 64 µg/mL"
  },
  {
    "Structure smiles": "COc1ccc2nc(CN3CCN(C(=O)c4ccccc4F)CC3)cc(OC)c2c1",
    "Readout type": "MIC",
    "Observed measurement": "> 64 µg/mL"
  },
  {
    "Structure smiles": "COc1ccc2nc(CN3CCN(C(=O)C4CCC4)CC3)cc(OC)c2c1",
    "Readout type": "MIC",
    "Observed measurement": "> 64 µg/mL"
  },
  {
    "Structure smiles": "COc1cccc(C(=O)N2CCN(Cc3cc(OC)c4cc(OC)ccc4n3)CC2)c1",
    "Readout type": "MIC",
    "Observed measurement": "> 64 µg/mL"
  },
  {
    "Structure smiles": "COc1cc(CN2CCN(S(=O)(=O)c3ccccc3F)CC2)nc2ccc(F)cc12",
    "Readout type": "MIC",
    "Observed measurement": "16 µg/mL"
  },
  {
    "Structure smiles": "COc1cc(Cc2cnc(N)nc2N)cc(OC)c1OC",
    "Readout type": "MIC",
    "Observed measurement": "16 µg/mL"
  },
  {
    "Structure smiles": "COc1ccc(C(=O)N2CCN(Cc3cc(OC)c4cc(F)ccc4n3)CC2)cc1",
    "Readout type": "MIC",
    "Observed measurement": "> 64 µg/mL"
  },
  {
    "Structure smiles": "COc1ccc2nc(CN3CCN(S(=O)(=O)c4cccs4)CC3)cc(OC)c2c1",
    "Readout type": "MIC",
    "Observed measurement": "> 64 µg/mL"
  },
  {
    "Structure smiles": "COc1ccc2nc(CN3CCN(C(=O)c4ccc(Cl)cc4Cl)CC3)cc(OC)c2c1",
    "Readout type": "MIC",
    "Observed measurement": "> 64 µg/mL"
  }
]
